Taken from a melting point compilation (Tetko et al.).

parameter.measured: melting point

Recorded melting point (compound `CCNC(=O)Cc1ccc(N)cc1` ): 117 to 119 °C

Summary for this compound, `Cn1cc(S(=O)(=O)Cl)cc1C(=O)C(Cl)(Cl)Cl` : melting point is 158 to 160 °C

Further cases:
// sample `Sc1nnc(-c2ccc3c(c2)OCO3)o1` , its melting point was 179 to 181 °C

Record `Cc1cnn(Cc2ccc(N)cc2)c1` , field melting point: 78 to 80 °C

Documented melting point of `N#Cc1ccc(NC(N)=O)cc1` : 234 to 236 °C

Lab note: `O=C(c1ccccc1F)N1CCC(O)CC1` gave melting point of 104 to 106 °C

Field melting point (entry `CCc1c(-c2ccncc2)n[nH]c1N` ) reads 154 to 156 °C
